# inhibition in vivo at 20 mg/kg per entry
Tested on: Rattus norvegicus
test: Antiinflammatory activity against Wistar albino rat assessed as inhibition of carrageenan-induced paw edema at 20 mg/kg, po administered 30 mins prior to carrageenan challenge measured after 0.5 hrs
Assay type: functional
The reply should contain only the number, in %.

Known results for compounds:
1. CC(C)Cc1ccc(C(C)c2nn(CN(c3ccccc3)c3ccccc3)c(=S)n2/N=C/c2ccc(Br)cc2)cc1 (stereo not given) = 9
2. CC(C)Cc1ccc(C(C)c2nnc(S)n2N)cc1 (stereo not given) = 30
3. CC(C)Cc1ccc(C(C)c2nn(CN3CCN(C)CC3)c(=S)n2/N=C/c2ccc([N+](=O)[O-])cc2)cc1 (stereo not given) = 38
4. Cc1ccc(/C=N/n2c(C(C)c3ccc(CC(C)C)cc3)nn(CN3CCOCC3)c2=S)cc1 (stereo not given) = 0
5. CC(C)Cc1ccc(C(C)c2nnc(S)n2/N=C/c2ccc(Br)cc2)cc1 (stereo not given) = 0
6. CC(C)Cc1ccc(C(C)c2nnc(S)n2/N=C/c2ccc(Cl)cc2)cc1 (stereo not given) = 62
7. O=C(O)Cc1ccccc1Nc1c(Cl)cccc1Cl = 83
8. CC(C)Cc1ccc(C(C)C(=O)O)cc1 (stereo not given) = 20
9. CC(C)Cc1ccc(C(C)c2nn(CN3CCOCC3)c(=S)n2/N=C/c2ccc([N+](=O)[O-])cc2)cc1 (stereo not given) = 12

Incoming: Any idea what inhibition in vivo at 20 mg/kg was measured for CC(C)Cc1ccc(C(C)c2nn(CN3CCOCC3)c(=S)n2/N=C/c2ccc(Cl)cc2)cc1 (stereo not given) ?
Outgoing: 90

###

Tested on: Staphylococcus aureus
test: Antimicrobial activity against Staphylococcus aureus at 1000 ug after 24 to 48 hrs by well diffusion method
Type: functional, organism-based
Calls of active or inactive are those of the source. The calls are words filed in the database; no cut-off is given here.
quantity name: Activity

1. CC(C)Cc1ccc(C(C)c2nn(CN(c3ccccc3)c3ccccc3)c(=S)n2/N=C/c2ccc(Br)cc2)cc1 (stereo not drawn) = inactive
2. CC(C)Cc1ccc(C(C)c2nn(CN3CCOCC3)c(=S)n2/N=C/c2ccc(Cl)cc2)cc1 (stereo not drawn) = inactive
3. CC(C)Cc1ccc(C(C)c2nnc(S)n2/N=C/c2ccc(Br)cc2)cc1 (stereo not drawn) = inactive

###

System: Mus musculus
test: Analgesic activity against Swiss albino mouse assessed as increase in paw licking or jump response at 10 mg/kg, po after 1.5 hrs by hot plate method
Type: functional
quantity name: Activity (%)
Hi! Could you send only the number? It should be in %, unit omitted.

Here is how some molecules turned out for Activity.
1. CC(C)Cc1ccc(C(C)c2nn(CN3CCN(C)CC3)c(=S)n2/N=C/c2ccc([N+](=O)[O-])cc2)cc1 (stereo not given) = 70.75
2. O=C(O)Cc1ccccc1Nc1c(Cl)cccc1Cl [DICLOFENAC] = 79.24
3. CC(C)Cc1ccc(C(C)c2nn(CN3CCOCC3)c(=S)n2/N=C/c2ccc([N+](=O)[O-])cc2)cc1 (stereo not given) = 79.6

Incoming: Quick check: Activity of Cc1ccc(/C=N/n2c(C(C)c3ccc(CC(C)C)cc3)nn(CN3CCOCC3)c2=S)cc1 (stereo not given) ?
Outgoing: 64.32

Incoming: How about this molecule: CC(C)Cc1ccc(C(C)c2nn(CN3CCOCC3)c(=S)n2/N=C/c2ccc(Cl)cc2)cc1 (stereo not given)
Outgoing: 76.49

###

System: Rattus norvegicus
test: Antiinflammatory activity against Wistar albino rat assessed as inhibition of carrageenan-induced paw edema at 20 mg/kg, po administered 30 mins prior to carrageenan challenge measured after 1 hrs
Type: functional
Form field: inhibition in vivo at 20 mg/kg (one value per entry).
Entry rule: numbers only, all in %.

Below, 5 molecules whose answers are already recorded.
1. CC(C)Cc1ccc(C(C)c2nn(CN3CCOCC3)c(=S)n2/N=C/c2ccc(Cl)cc2)cc1 (stereo not given) = 42
2. CC(C)Cc1ccc(C(C)C(=O)O)cc1 (stereo not given) = 18
3. CC(C)Cc1ccc(C(C)c2nnc(S)n2/N=C/c2ccc(Cl)cc2)cc1 (stereo not given) = 49
4. CC(C)Cc1ccc(C(C)c2nn(CN3CCOCC3)c(=S)n2/N=C/c2ccc([N+](=O)[O-])cc2)cc1 (stereo not given) = 52
5. CC(C)Cc1ccc(C(C)c2nnc(S)n2/N=C/c2ccc(Br)cc2)cc1 (stereo not given) = 16

Incoming: Which inhibition in vivo at 20 mg/kg value is on record for CC(C)Cc1ccc(C(C)c2nn(CN3CCN(C)CC3)c(=S)n2/N=C/c2ccc([N+](=O)[O-])cc2)cc1 (stereo not given) ?
Outgoing: 70

Incoming: Input CC(C)Cc1ccc(C(C)c2nnc(S)n2N)cc1 (stereo not given)
Outgoing: 32

###

System: Rattus norvegicus
test: Antiinflammatory activity against Wistar albino rat assessed as inhibition of carrageenan-induced paw edema at 20 mg/kg, po administered 30 mins prior to carrageenan challenge measured after 2 hrs
Assay type: functional
inhibition in vivo at 20 mg/kg values, listed per item
I only need the number, in %, no unit after it.

Recorded results for 2 compounds are shown here.
1. CC(C)Cc1ccc(C(C)C(=O)O)cc1 (stereo not given) = 36
2. CC(C)Cc1ccc(C(C)c2nnc(S)n2/N=C/c2ccc(Cl)cc2)cc1 (stereo not given) = 57

Incoming: Reported inhibition in vivo at 20 mg/kg, compound CC(C)Cc1ccc(C(C)c2nnc(S)n2/N=C/c2ccc(Br)cc2)cc1 (stereo not given) : ____
Outgoing: 60

Incoming: And then O=C(O)Cc1ccccc1Nc1c(Cl)cccc1Cl , what is it?
Outgoing: 87

Incoming: Another: CC(C)Cc1ccc(C(C)c2nn(CN(c3ccccc3)c3ccccc3)c(=S)n2/N=C/c2ccc(Br)cc2)cc1 (stereo not given)
Outgoing: 38

Incoming: Now give it for Cc1ccc(/C=N/n2c(C(C)c3ccc(CC(C)C)cc3)nn(CN3CCOCC3)c2=S)cc1 (stereo not given) too.
Outgoing: 60

Incoming: CC(C)Cc1ccc(C(C)c2nn(CN3CCOCC3)c(=S)n2/N=C/c2ccc(Cl)cc2)cc1 (stereo not given) , same question.
Outgoing: 61

Incoming: And what about the compound CC(C)Cc1ccc(C(C)c2nnc(S)n2N)cc1 (stereo not given) ?
Outgoing: 45

Incoming: Further, for CC(C)Cc1ccc(C(C)c2nn(CN3CCOCC3)c(=S)n2/N=C/c2ccc([N+](=O)[O-])cc2)cc1 (stereo not given) ?
Outgoing: 54

Incoming: Another compound: CC(C)Cc1ccc(C(C)c2nn(CN3CCN(C)CC3)c(=S)n2/N=C/c2ccc([N+](=O)[O-])cc2)cc1 (stereo not given)
Outgoing: 68

###

Item-by-item account of inhibition in vivo at 20 mg/kg
Tested on: Rattus norvegicus
test: Antiinflammatory activity against Wistar albino rat assessed as inhibition of carrageenan-induced paw edema at 20 mg/kg, po administered 30 mins prior to carrageenan challenge measured after 1 hrs
Type: functional
The reply should consist of the numeric value with the unit placed after it.

1. Cc1ccc(/C=N/n2c(C(C)c3ccc(CC(C)C)cc3)nn(CN3CCOCC3)c2=S)cc1 (stereo not drawn) = 23%

Incoming: Given the entry O=C(O)Cc1ccccc1Nc1c(Cl)cccc1Cl , what inhibition in vivo at 20 mg/kg was observed with Rattus norvegicus?
Outgoing: 59%

Incoming: Entry to check: CC(C)Cc1ccc(C(C)c2nn(CN(c3ccccc3)c3ccccc3)c(=S)n2/N=C/c2ccc(Br)cc2)cc1 (stereo not drawn)
Outgoing: 10%
